# test.name: chemical genetic growth profiling, strain panel (AID 1159580);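 also: tested at 20 µM; growth read once vehicle control cultures reached saturation at 30 °C; 1 = growth at the plate median or of vehicle wells; lower values mean less growth of the strain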
# particulars: S. cerevisiae deletion strains, growth OD, locus YJL187C, strain SWE1 (second series), hits give low values
In all, about 5,500 compounds went through this assay and about 2,000 (36%) were called active. Inconclusive results (about 18%) are left out. Some of the results follow.
measurement.type: normalized growth
// keep it numeric: no unit symbol after the value

Asked: Indicate its recorded normalized growth; the compound in question is COc1cc(OC)c2ccc(=O)oc2c1
Given back: 1.01

Asked: Indicate its recorded normalized growth; the compound in question is CC(=O)Oc1ccc2c(c1C(C)C)CCC1C(C)(C)CCC[C@]21C (stereo partly drawn)
Given back: 1.02

Asked: Indicate its recorded normalized growth; the compound in question is CNC(C)C(O)c1ccccc1 (stereo not drawn)
Given back: 1
